Values compiled from the supplement of paper PMC10567573.

B1: TMEM192 (parent)
chain: LWILHLLLECYIQYHHSKIRNRGY

variants of: B1; assay: protein stability index of a GFP-peptide fusion (GPS, HEK-293T) (PSI 1-6); higher = more stable; conditions: c terminus: a fixed tail appended;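 note: lentivirally expressed fusions sorted by FACS into six bins by GFP to DsRed ratio, PSI derived from sequencing read proportions per bin multiplied by bin number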
Below, each entry is listed alongside its reported protein stability index.
Just the number, please, no unit attached.

Guide cases for protein stability index, answers given:
> print(dat)
   variant.name  reading
1          C10R     2.03
2          Q13C     2.06
3           I3G     1.37

So, "Q13L" ? Its protein stability index was 2

Lookup result for "Y14N" ; measured protein stability index: 1.53

Measured protein stability index of "H15D" : 1.56

response.value for "R22A" (field: protein stability index) = 2.18
